# System: ATP;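 further: ATP exposure 15 min at 22 °C before imaging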
# Assay Protocol: switch fluorescence ratio, 500 uM ATP over buffer (Cy3 cluster intensity, sum of 5 cycles each) (fold (ratio)); higher = stronger signal-on switching upon ATP binding; sequences stand for … in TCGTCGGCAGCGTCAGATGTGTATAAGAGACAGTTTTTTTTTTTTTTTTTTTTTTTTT…TC
# Condition: aptamer strand: ATP DNA aptamer (quencher-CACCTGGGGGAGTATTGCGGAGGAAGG + anchor), 100 nM annealed; ATP concentration: 500 uM
Parameter switch fluorescence ratio: see the listing below.
Measurement Kind: switch fluorescence ratio

AGGGGCTTCG : 1.04
TTTATTGCTA : 1.01
TCTGTCCCGC : 1.16
TTCAATATTT : 1
TGATGTTGGT : 0.988
TAGAAGGGGT : 0.969
AGGCTGCATG : 1.01
CAAGTAATTG : 1.03
CTGGTATATC : 1.06
AAGTCCGTTG : 1.01
TTTACAAGTA : 1.03
GATTTATTTG : 0.989
AGTTGCTAAG : 0.986
AATGTAGGGG : 1.02
ATATTCCACA : 0.998
CGAGCCGAGA : 1
TTGGGGATGG : 1.01
GGGGGTTACA : 1.01
TGTAGGAGAC : 1.24
GTGGTGCACG : 0.997
TATAGGGAGG : 0.988
TGCGGGGTTA : 0.986
AGTATTGGTG : 0.956
CGTTTCGTTT : 0.98
GACGTTGTGG : 1.03
ACTGCAAAAT : 1.13
AAATGTTTGT : 1.01
TTTACAGGTT : 1.11
CAGTGAGGGT : 0.981
AAGGGACACA : 1.05
TTTGAGTAGG : 0.992
ACTATATTTT : 1.04
TTTAAAAAGC : 0.996
GGGGCTTAAG : 1.02
GGAATAGTAG : 1
AGGTGAGGTA : 1
GGTTTTGATC : 0.972
AAGAGTCTTT : 1.01
ATTTAAGAAT : 1.02
TTCCAGTTGG : 1.04
TGTGGGGAAA : 0.993
TGGATGTGAT : 1.03
AATTTAGGAA : 0.975
TCTGAAAGTG : 0.989
ACTTTGGTCT : 1.04
TTTTAACCTA : 1.01
TTTTCAGTTG : 1
GAATATTGTA : 0.988
GGGTGGAAGT : 0.981
GCTGGGGGGA : 0.981

----------
# Tested on: ATP;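 further: ATP exposure 15 min at 22 °C before imaging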
# Assay Protocol: switch fluorescence ratio, 500 uM ATP over buffer (Cy3 cluster intensity, sum of 5 cycles each) (fold (ratio)); higher = stronger signal-on switching upon ATP binding; sequences stand for … in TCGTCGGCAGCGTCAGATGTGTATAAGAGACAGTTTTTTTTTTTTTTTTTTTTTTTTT…TC
# Condition: aptamer strand: ATP DNA aptamer (quencher-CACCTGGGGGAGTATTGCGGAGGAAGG + anchor), 100 nM annealed; ATP concentration: 500 uM
Parameter switch fluorescence ratio: see the listing below.
Measurement Kind: switch fluorescence ratio

GCATTAGGGA : 0.989
GCCGGACTTT : 1.01
TTAATTAACG : 0.995
ACAGGGTTGG : 1.02
TGCAGTGGTT : 1.01
ATGGATTGTG : 0.983
GAAGTTAGTT : 0.993
GACTAGTGAC : 1.01
TTTGAATAGA : 0.992
CGGAGAAGTT : 1
TTGGCCGGGG : 1.01
